experimentDescription: Half life in C57Bl/6 mouse at 3 mg/kg, iv and measured upto 8 hrs by LC-MS/MS analysis
Format: ADME, organism-based
testSettings: in vivo
observedProperty: half-life
Answers without a unit are incomplete; give the number and then its unit.

Problem: Suppose we examine the compound O=C(Nc1nccs1)C(c1cc(F)ccc1O)N1Cc2ccc(-c3ccc(N4CCNCC4)cc3)cc2C1=O (stereo unspecified) ; what half-life value has been reported?
Result: 3 h

---

systemUnderTest: Epidermal growth factor receptor (Homo sapiens, UniProt P00533, C797S/EX19DEL/T790M)
Sequence (P00533 whole entry, looked up, stated change not applied): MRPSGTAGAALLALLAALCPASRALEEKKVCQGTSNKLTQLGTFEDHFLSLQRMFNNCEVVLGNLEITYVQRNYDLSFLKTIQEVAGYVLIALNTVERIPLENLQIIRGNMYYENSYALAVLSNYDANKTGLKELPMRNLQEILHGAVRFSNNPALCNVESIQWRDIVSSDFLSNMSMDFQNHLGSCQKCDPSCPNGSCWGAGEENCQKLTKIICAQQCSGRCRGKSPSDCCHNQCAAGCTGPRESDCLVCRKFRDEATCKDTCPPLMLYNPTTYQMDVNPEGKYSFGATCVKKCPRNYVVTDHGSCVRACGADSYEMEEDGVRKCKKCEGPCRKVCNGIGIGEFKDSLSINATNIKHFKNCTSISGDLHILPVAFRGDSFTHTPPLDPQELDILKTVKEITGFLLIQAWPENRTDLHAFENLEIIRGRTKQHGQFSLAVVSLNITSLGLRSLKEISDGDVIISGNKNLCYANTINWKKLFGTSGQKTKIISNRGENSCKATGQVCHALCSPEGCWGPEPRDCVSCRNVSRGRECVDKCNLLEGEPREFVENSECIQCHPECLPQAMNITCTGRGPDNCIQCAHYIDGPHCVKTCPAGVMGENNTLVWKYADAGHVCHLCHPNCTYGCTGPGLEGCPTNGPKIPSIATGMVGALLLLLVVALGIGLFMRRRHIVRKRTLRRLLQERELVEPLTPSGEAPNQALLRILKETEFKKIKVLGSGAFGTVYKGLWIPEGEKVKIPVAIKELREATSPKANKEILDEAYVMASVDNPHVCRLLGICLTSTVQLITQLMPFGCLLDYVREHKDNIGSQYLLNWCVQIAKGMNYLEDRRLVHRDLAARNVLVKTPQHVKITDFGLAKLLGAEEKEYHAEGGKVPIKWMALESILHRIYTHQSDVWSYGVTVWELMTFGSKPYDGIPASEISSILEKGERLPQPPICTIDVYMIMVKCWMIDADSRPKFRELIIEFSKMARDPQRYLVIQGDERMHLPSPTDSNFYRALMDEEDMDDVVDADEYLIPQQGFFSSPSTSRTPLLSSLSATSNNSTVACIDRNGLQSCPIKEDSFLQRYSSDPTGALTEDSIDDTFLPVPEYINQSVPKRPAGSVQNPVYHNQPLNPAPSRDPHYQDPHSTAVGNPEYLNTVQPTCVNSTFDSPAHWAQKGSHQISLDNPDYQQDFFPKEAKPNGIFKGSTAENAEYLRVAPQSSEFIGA
experimentDescription: Inhibition of EGFR del19/T790M/C797S triple mutant (unknown origin) phosphorylation expressed in mouse BaF3 cells by fluorescence based microplate reader analysis
Type: cell-based
Please respond with reported IC50 for every item in the list.

Please review the entries below; each comes with its answer.
INSERT INTO results (moleculesmiles, measured) VALUES
  ('Cc1cc(Nc2ncc(Cl)c(Nc3ccccc3P(C)(C)=O)n2)ccc1N1CCC2(CC1)CN(C)C2', '< 100 nM'),
  ('CN1CCC2(CC1)CCN(c1ccc(Nc3ncc(Cl)c(Nc4ccccc4P(C)(C)=O)n3)cc1Br)CC2', '< 100 nM');

Now consider the entry below.
Problem: Checklist item: IC50 tested on Epidermal growth factor receptor (Homo sapiens, UniProt P00533, C797S/EX19DEL/T790M), entry "C=C(C)c1cnc(Nc2ccc(N3CCC4(CCN(C)CC4)CC3)c(C)c2)nc1Nc1ccccc1P(C)(C)=O" , value?
Result: < 100 nM

---

systemUnderTest: Epidermal growth factor receptor (Homo sapiens)
experimentDescription: Inhibition of human wild type GST-tagged EGFR expressed in Sf9 cells assessed as substrate phosphorylation using TK-peptide as substrate incubated for 25 mins by HTRF assay
Would you kindly list IC50 for each of these molecules?
Answers are plain numbers, in nM.

INSERT INTO measurements (moleculesmiles, observedproperty, measured) VALUES
  ('CCC(=O)Nc1cccc(-c2c(-c3ccc(N4CCN(C)CC4)cc3)[nH]c3ncn(C4CCCCC4)c(=O)c23)c1', 'IC50', 0.4),
  ('CCC(=O)Nc1cccc(-c2c(-c3ccccc3)[nH]c3ncnc(OC)c23)c1', 'IC50', 1200),
  ('CCC(=O)Nc1cccc(-c2c(-c3ccc(N4CCN(C)CC4)cc3)[nH]c3ncnc(OCC(C)C)c23)c1', 'IC50', 0.2);

Proceeding to the next molecule to report its IC50.
Problem: Missing value: IC50, Epidermal growth factor receptor (Homo sapiens), entry "CCC(=O)Nc1cccc(-c2c(-c3ccc(N4CCN(C)CC4)cc3)[nH]c3ncnc(OC(C)C)c23)c1" . Fill in?
Result: 0.1

---

systemUnderTest: Epidermal growth factor receptor (Homo sapiens, UniProt P00533, C797S/EX19DEL/T790M)
experimentDescription: Inhibition of human EGFR del19/T790M/C797S mutant using ATP-labelled peptide substrate by HTRF assay
observedProperty: IC50

INSERT INTO results (moleculesmiles, measured) VALUES
  ('COc1cc(N2CCC(N3CCN(C)CC3)CC2)ccc1Nc1ncc(Cl)c(Nc2ccccc2NS(C)(=O)=O)n1', '0.2 nM');

Next, consider the following compound.
Problem: What value of measured IC50 is listed for "COc1cc(N2CCC(N3CCN(CCO)CC3)CC2)ccc1Nc1ncc(Cl)c(Nc2ccccc2NS(C)(=O)=O)n1" ?
Result: 0.8 nM

---

System: BaF3
experimentDescription: Cytotoxicity against mouse BaF3 cells expressing human EGFR C797S/del19 mutant assessed as inhibition of in cell viability measured after 72 hrs by CellTiter-Glo assay
Type: functional, cell-based
testSettings: BaF3, 72 h
For each entry below, report its pIC50 value.
Numbers only, as −log10 of the molar value.

Hi! Can you tell me pIC50 for each of these compounds?
1. COc1cc(N2CCC(N3CCN(C)CC3)CC2)ccc1Nc1ncnc(Nc2ccccc2S(=O)(=O)C(C)C)n1 [ASP-3026]
2. COc1cc(N2CCC(N(C)C)CC2)ccc1Nc1ncc(Cl)c(Nc2ccccc2P(C)(C)=O)n1
3. COc1cc(N2CCC(N)CC2)ccc1Nc1ncc(Cl)c(-c2c[nH]c3ccccc23)n1
4. COc1cc(N2CCC(N3CCN(C)CC3)CC2)ccc1Nc1ncc(Cl)c(Nc2ccccc2P(C)(C)=O)n1 [BRIGATINIB]

Result:
1. 6.49
2. 7.55
3. 7.13
4. 7.40

---

experimentDescription: Cmax in C57Bl/6 mouse plasma at 20 mg/kg, po and measured upto 8 hrs by LC-MS/MS analysis
Format: ADME, organism-based
Design: dose 20 mg/kg, time < 8 hrs, route po
observedProperty: Cmax (nM)
One number for each entry, in nM.

Problem: Tell me the measured Cmax of O=C(Nc1nccs1)C(c1cc(F)ccc1O)N1Cc2ccc(-c3ccc(N4CCNCC4)cc3)cc2C1=O (stereo unspecified) , please.
Result: 1100

---

systemUnderTest: Epidermal growth factor receptor (Homo sapiens, UniProt P00533, L858R/T790M)
Sequence (P00533 25-1210 T790M/L858R limits assumed): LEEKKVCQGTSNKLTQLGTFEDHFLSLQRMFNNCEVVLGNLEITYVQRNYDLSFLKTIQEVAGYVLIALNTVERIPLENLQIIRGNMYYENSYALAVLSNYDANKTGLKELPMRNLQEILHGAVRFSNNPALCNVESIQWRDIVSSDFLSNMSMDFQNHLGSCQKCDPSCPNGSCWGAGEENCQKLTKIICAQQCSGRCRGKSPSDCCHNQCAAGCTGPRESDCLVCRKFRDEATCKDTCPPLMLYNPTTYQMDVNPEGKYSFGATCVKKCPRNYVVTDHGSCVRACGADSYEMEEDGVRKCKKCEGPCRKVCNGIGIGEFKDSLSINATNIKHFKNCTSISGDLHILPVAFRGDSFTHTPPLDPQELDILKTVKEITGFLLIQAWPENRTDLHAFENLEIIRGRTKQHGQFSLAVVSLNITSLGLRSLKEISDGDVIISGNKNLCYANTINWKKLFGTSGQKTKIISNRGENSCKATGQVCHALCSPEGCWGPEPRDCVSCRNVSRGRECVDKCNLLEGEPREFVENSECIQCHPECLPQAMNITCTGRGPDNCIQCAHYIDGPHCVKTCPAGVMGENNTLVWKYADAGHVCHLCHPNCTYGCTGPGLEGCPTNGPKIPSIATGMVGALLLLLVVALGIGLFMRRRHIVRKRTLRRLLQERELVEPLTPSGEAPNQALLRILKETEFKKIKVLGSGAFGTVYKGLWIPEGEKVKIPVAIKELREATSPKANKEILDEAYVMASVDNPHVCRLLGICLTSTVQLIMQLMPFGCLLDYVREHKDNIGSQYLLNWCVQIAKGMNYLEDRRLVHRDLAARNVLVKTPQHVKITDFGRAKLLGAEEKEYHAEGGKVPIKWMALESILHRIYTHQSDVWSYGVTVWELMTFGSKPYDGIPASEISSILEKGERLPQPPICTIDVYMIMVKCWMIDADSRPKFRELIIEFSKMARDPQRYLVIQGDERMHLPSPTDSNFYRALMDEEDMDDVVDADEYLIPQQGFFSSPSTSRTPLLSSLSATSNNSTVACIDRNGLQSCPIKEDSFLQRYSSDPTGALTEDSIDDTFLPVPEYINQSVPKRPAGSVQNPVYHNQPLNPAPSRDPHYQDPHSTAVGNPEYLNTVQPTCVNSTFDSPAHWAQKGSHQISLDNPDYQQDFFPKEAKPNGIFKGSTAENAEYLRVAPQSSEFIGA
experimentDescription: Inhibition of human GST-tagged EGFR L858R/T790M mutant expressed in Sf9 cells assessed as substrate phosphorylation using TK-peptide as substrate incubated for 20 mins by HTRF assay
observedProperty: pIC50
One number for each entry, as −log10 of the molar value.

INSERT INTO results (moleculesmiles, systemundertest, observedproperty, measured) VALUES
  ('CCC(=O)Nc1cccc(-c2c(-c3ccc(N4CCN(C)CC4)cc3)[nH]c3ncnc(OC(C)C)c23)c1', 'Epidermal growth factor receptor (Homo sapiens, UniProt P00533, L858R/T790M)', 'pIC50', 10.00),
  ('CCC(=O)Nc1cccc(-c2c(-c3ccccc3)[nH]c3ncnc(OC)c23)c1', 'Epidermal growth factor receptor (Homo sapiens, UniProt P00533, L858R/T790M)', 'pIC50', 6.75);

// moving on: another record for pIC50
Problem: I'd like to know its pIC50. The molecule in question is "CCC(=O)Nc1cccc(-c2c(-c3ccc(N4CCN(C)CC4)cc3)[nH]c3ncn(C4CCCCC4)c(=O)c23)c1"
Result: 9.40

---

experimentDescription: AUClast in C57Bl/6 mouse at 3 mg/kg, iv and measured upto 8 hrs by LC-MS/MS analysis
Assay type: ADME, organism-based
Design: dose 3 mg/kg, time < 8 hrs, route iv
testSettings: in vivo
observedProperty: AUC(0-t) at 8 h (ng·h/mL)
Numbers only, in ng·h/mL.

Problem: Which AUC(0-t) at 8 h is reported for this molecule? O=C(Nc1nccs1)C(c1cc(F)ccc1O)N1Cc2ccc(-c3ccc(N4CCNCC4)cc3)cc2C1=O (stereo unspecified)
Result: 12100
